Exercise: state measured pIC50 for each of the compounds provided.
Biological target: DNA repair nuclease/redox regulator APEX1 (Homo sapiens)
Assay: Inhibition of purified human recombinant APE1 expressed in Escherichia coli M15 cells
FYI, pIC50 means -log10 of a concentration in mol per litre.

Qu. Tell me the measured pIC50 of O=C(O)CN1C(=O)/C(=C2/C(=O)N(CC(=O)O)c3ccccc32)SC1=S , please.
Ans. 4.89

Qu. # repeat for COc1ccc(S(=O)(=O)N2CCC(C(=O)O)CC2)cc1C(=O)O
Ans. 4.52

Qu. # repeat for O=C(O)CCN1C(=O)/C(=C2/C(=O)N(CC(=O)O)c3ccccc32)SC1=S
Ans. 5.22

Qu. # repeat for O=C(O)CC(CC(=O)Nc1nnn[nH]1)c1ccccc1 (configuration not stated)
Ans. 4.52

Qu. # repeat for Cc1cc(S(=O)(=O)N2CCOCC2)ccc1OCC(=O)O
Ans. 4.00

Qu. # repeat for O=C(O)c1oc2ccccc2c1CSc1ccccn1
Ans. 4.57

Qu. # repeat for O=C(O)CN1C(=O)/C(=C\c2ccc(-c3cccc(C(=O)O)c3)o2)SC1=S
Ans. 5.22

Qu. # repeat for Cc1oc(C(=O)O)cc1CSCC(C)C(=O)O (configuration not stated)
Ans. 4.66

Qu. # repeat for O=C(O)CSc1ccc(C(=O)O)cc1[N+](=O)[O-]
Ans. 4.00

Qu. # repeat for O=C(O)c1ccc(S(=O)(=O)c2ccc(Sc3ccc(C(=O)O)c(C(=O)O)c3)cc2)cc1
Ans. 5.22

---

Exercise: state measured pIC50 for each of the compounds provided.
Target: DNA repair nuclease/redox regulator APEX1 (Homo sapiens)
Assay: Inhibition of purified human recombinant APE1 expressed in Escherichia coli M15 cells
pIC50: −log10 of the molar value.

Qu. Tell me the measured pIC50 of CCOc1cc(-n2cnnn2)c(OCC)cc1NC(=O)c1cc2cccc(OC)c2oc1=O , please.
Ans. < 4.00

Qu. # repeat for O=C(O)CCCNc1n[nH]c(=O)[nH]c1=O
Ans. < 4.00

Qu. # repeat for O=C(Nc1cc(S(=O)(=O)O)cc2cc(S(=O)(=O)O)cc(O)c12)c1ccccc1
Ans. 4.57

Qu. # repeat for O=C(O)CCc1nc2cc(C(=O)O)ccc2[nH]1
Ans. 4.10

Qu. # repeat for O=C(O)CNC1CS(=O)(=O)CC1O (stereo unspecified)
Ans. < 4.00

Qu. # repeat for O=C(O)c1cccc(Nc2nc3ccccc3nc2NS(=O)(=O)c2cccc([N+](=O)[O-])c2)c1
Ans. < 4.00

---

Biological target: DNA repair nuclease/redox regulator APEX1 (Homo sapiens, UniProt P27695)
Sequence (P27695 whole entry): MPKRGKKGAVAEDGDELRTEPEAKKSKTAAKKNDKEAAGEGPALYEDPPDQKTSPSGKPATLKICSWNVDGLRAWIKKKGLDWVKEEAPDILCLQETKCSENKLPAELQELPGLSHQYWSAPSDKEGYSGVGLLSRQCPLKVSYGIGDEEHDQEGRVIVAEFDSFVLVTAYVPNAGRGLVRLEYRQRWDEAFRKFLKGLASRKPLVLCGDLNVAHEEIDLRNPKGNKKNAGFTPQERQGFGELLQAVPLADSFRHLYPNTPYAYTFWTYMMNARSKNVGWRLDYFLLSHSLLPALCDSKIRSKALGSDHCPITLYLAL
Test: Inhibition of purified human recombinant APE1 expressed in Escherichia coli M15 cells
Exercise: state measured IC50 for each of the compounds provided.

Qu. Tell me the measured IC50 of O=S(=O)(NCc1ccccc1)c1ccc(S(=O)(=O)N(Cc2ccc(Cl)cc2)Cc2ccco2)cc1 , please.
Ans. > 100 µM

Qu. # repeat for Cc1ccc(Cn2nnc3c(O)nc(C4CCCN(S(=O)(=O)c5ccccc5)C4)nc32)cc1 (centres undefined)
Ans. > 100 µM

Qu. # repeat for Nc1ccc(-c2ccc(N)c(S(=O)(=O)O)c2)cc1S(=O)(=O)O
Ans. > 100 µM

Qu. # repeat for COc1ccc(NS(=O)(=O)c2ccc(NC(=O)c3ccccc3C(=O)O)cc2)nn1
Ans. > 100 µM

Qu. # repeat for O=C(O)CSC1CCS(=O)(=O)C1 (centres undefined)
Ans. > 100 µM

Qu. # repeat for COc1cc(S(=O)(=O)NC2CCCCC2C)ccc1-n1cnnn1 (centres undefined)
Ans. > 100 µM

Qu. # repeat for CCOC(=O)C(=Cc1c[nH]c2ccc(S(=O)(=O)N(C)C)cc12)C(=O)OCC
Ans. > 100 µM

Qu. # repeat for CC(C)(C)NS(=O)(=O)c1ccc2oc3ccc(S(=O)(=O)NC(C)(C)C)cc3c2c1
Ans. > 100 µM

Qu. # repeat for O=[N+]([O-])c1ccccc1-c1nnc(CSc2nnc(-c3ccccc3O)o2)o1
Ans. > 100 µM

Qu. # repeat for O=S(=O)(c1ccc(F)cc1)N1CCCC(c2nc(O)c3nnn(Cc4ccc(F)cc4)c3n2)C1 (centres undefined)
Ans. > 100 µM

Qu. # repeat for COc1ccc(/C=C/C(=O)O)cc1S(=O)(=O)NCc1cccnc1
Ans. > 100 µM

Qu. # repeat for O=S(=O)(O)c1cc(O)c2c(S(=O)(=O)O)cc(S(=O)(=O)O)cc2c1
Ans. > 100 µM

Qu. # repeat for O=S(=O)(Nc1ccc(NS(=O)(=O)c2cccs2)cc1)c1cccs1
Ans. > 100 µM

Qu. # repeat for Cn1c(SCC(N)=O)nnc1-c1ccc(NS(C)(=O)=O)cc1
Ans. > 100 µM

Qu. # repeat for Cc1cc(C)nc(SCc2nnc(SCC(=O)N3CCCCC3)n2-c2ccccc2)n1
Ans. > 100 µM

Qu. # repeat for CCS(=O)(=O)N1CCCC(c2nc(O)c3nnn(Cc4ccccc4)c3n2)C1 (centres undefined)
Ans. > 100 µM

Qu. # repeat for O=C(Nc1nnc(CCS(=O)(=O)c2ccc3ccccc3c2)s1)c1ccccc1
Ans. > 100 µM

Qu. # repeat for CCOC(=O)c1cnc(SC(C)C(=O)O)nc1N (centres undefined)
Ans. > 100 µM

Qu. # repeat for O=C(Nc1nnc(CCS(=O)(=O)c2ccc3ccccc3c2)s1)c1ccccc1Cl
Ans. > 100 µM

Qu. # repeat for CCCS(=O)(=O)N1CCCC(c2nc(-c3ccc(C(C)C)cc3)no2)C1 (centres undefined)
Ans. > 100 µM

Qu. # repeat for Cc1ccc(S(=O)(=O)Nc2ccc(NC(=O)CN3CCCCC3)c(Cl)c2)cc1
Ans. > 100 µM

Qu. # repeat for COC(=O)C1C(=O)C2=C(CC1C)NC(C)=C(C(=O)OC1CCCC1)C2c1ccccc1C (centres undefined)
Ans. > 100 µM

Qu. # repeat for COC(=O)COc1ccc(S(=O)(=O)N2CCCCC2)cc1C
Ans. > 100 µM

Qu. # repeat for O=C(CN1C(=O)c2ccccc2S1(=O)=O)Nc1ccc(Cl)c(C(=O)O)c1
Ans. > 100 µM

---

Exercise: state measured pIC50 for each of the molecules provided.
Target: DNA repair nuclease/redox regulator APEX1 (Homo sapiens)
Assay: Inhibition of purified human recombinant APE1 expressed in Escherichia coli M15 cells
FYI, pIC50 means -log10 of a concentration in mol per litre.

Qu. Tell me the measured pIC50 of O=C(O)CN1C(=O)/C(=C2\SC(=S)N(c3ccc(Br)cc3)C2=O)c2ccccc21 , please.
Ans. 5.22

Qu. # repeat for Cc1ccc2c(c1)c1nnc(SCc3ccc(CC(=O)O)cc3)nc1n2C(=O)O
Ans. 4.82

Qu. # repeat for Cc1oc(CSCCSCc2cc(C(=O)O)c(C)o2)cc1C(=O)O
Ans. 5.30

Qu. # repeat for O=C(O)CCn1c(=O)oc2cc(S(=O)(=O)O)ccc21
Ans. 4.10

Qu. # repeat for O=C(O)Cn1c(=O)n(CC(=O)O)c2ccccc21
Ans. 4.80

Qu. # repeat for O=C(O)CCc1ccc(-c2cccs2)n1CC(=O)O
Ans. 5.05
